Listed below: cell viability values for each entry.
# Test system: HCI16 (cells of a triple-negative basal-like breast cancer xenograft);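 also: PDX cells carrying CMV promoter-driven luciferase, viability read as total photon flux per second by IVIS imaging following D-luciferin, vehicle control 0.1% DMSO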
# TEST DETAILS: cell viability (% of vehicle); higher = less cytotoxic
# EXPERIMENTAL SETUP: 10 µM; 72 h
Form rule: numeric answer, no unit written next to it.

These solved cases illustrate the format of a correct answer.
1) CN(CCOc1ccc(CC2SC(=O)NC2=O)cc1)c1ccccn1.O=C(O)C=CC(=O)O (centres undefined) [Rosiglitazone maleate]: 99.6
2) Cl.NC(N)=NC(=O)Cc1c(Cl)cccc1Cl [Guanfacine hydrochloride]: 94.4

Recorded cell viability (compound CCCCNc1ccc(C(=O)OCCN(C)C)cc1.Cl [Tetracaine HCl] ): 99

Briefly, cell viability measured for Clc1ccc2c(c1)C(N1CCNCC1)=Nc1ccccc1O2 [Amoxapine] : 94.9
